Cited source: ChEMBL document CHEMBL6127085

test: Intrinsic clearance in human; type: ADME; conditions: read-out: CLH
endpoint_label: log10 CLint scaled (log10 of the value in mL/min/kg)

[
  {
    "smiles_input": "C[C@@H](O)[C@H](NC(=O)c1ccc(C#Cc2ccc(/C=N/N3CCN(C(=O)C4CC4)CC3)cc2)cc1)C(=O)NO",
    "endpoint_label": "log10 CLint scaled",
    "recorded_measurement": 0.65
  },
  {
    "smiles_input": "CCC(=O)N1CCN(/N=C/c2ccc(C#Cc3ccc(C(=O)N[C@H](C(=O)NO)[C@@H](C)O)cc3)cc2)CC1",
    "endpoint_label": "log10 CLint scaled",
    "recorded_measurement": 0.63
  },
  {
    "smiles_input": "C[C@@H](O)[C@H](NC(=O)c1ccc(C#Cc2ccc(/C=N/N3CCN(C(=O)C(C)(C)C)CC3)cc2)cc1)C(=O)NO",
    "endpoint_label": "log10 CLint scaled",
    "recorded_measurement": 1.26
  },
  {
    "smiles_input": "C[C@@H](O)[C@H](NC(=O)c1ccc(C#Cc2ccc(CN3CCOCC3)cc2)cc1)C(=O)NO",
    "endpoint_label": "log10 CLint scaled",
    "recorded_measurement": 0.11
  },
  {
    "smiles_input": "C[C@@H](O)[C@H](NC(=O)c1ccc(C#Cc2ccc(/C=N/N3CCCC3)cc2)cc1)C(=O)NO",
    "endpoint_label": "log10 CLint scaled",
    "recorded_measurement": 2.22
  },
  {
    "smiles_input": "C[C@@H](O)[C@H](NC(=O)c1ccc(C#Cc2ccc(/C=N/N3CCOCC3)cc2)cc1)C(=O)NO",
    "endpoint_label": "log10 CLint scaled",
    "recorded_measurement": 0.83
  }
]

====

test: Plasma protein binding in human at 1 uM incubated for 6 hrs by LC-MS/MS analysis; format: ADME, cell-free; conditions: read-out: PPB

[
  {
    "smiles_input": "C[C@@H](O)[C@H](NC(=O)c1ccc(C#Cc2ccc(/C=N/N3CCCC3)cc2)cc1)C(=O)NO",
    "fraction unbound at 6 h, 1 µM": 0.001
  }
]

====

test: Metabolic stability in mouse liver microsomes assessed as half life at 1 uM preincubated for 5 mins followed by NADPH addition and measured after 5 to 60 mins by LC-MS analysis; format: ADME, Microsome; conditions: liver microsomes, time 10-65 min
Where half-life at 1 µM equals or exceeds 2 h, the correct label is 1; where it does not, the label is -1.

[
  {
    "smiles_input": "C[C@@H](O)[C@H](NC(=O)c1ccc(C#Cc2ccc(CN3CCOCC3)cc2)cc1)C(=O)NO",
    "label_class": -1
  },
  {
    "smiles_input": "C[C@@H](O)[C@H](NC(=O)c1ccc(C#Cc2ccc(/C=N/N3CCOCC3)cc2)cc1)C(=O)NO",
    "label_class": 1
  },
  {
    "smiles_input": "CCC(=O)N1CCN(/N=C/c2ccc(C#Cc3ccc(C(=O)N[C@H](C(=O)NO)[C@@H](C)O)cc3)cc2)CC1",
    "label_class": 1
  },
  {
    "smiles_input": "C[C@@H](O)[C@H](NC(=O)c1ccc(C#Cc2ccc(/C=N/N3CCN(C(=O)C4CC4)CC3)cc2)cc1)C(=O)NO",
    "label_class": 1
  },
  {
    "smiles_input": "C[C@@H](O)[C@H](NC(=O)c1ccc(C#Cc2ccc(/C=N/N3CCN(C(=O)C(C)(C)C)CC3)cc2)cc1)C(=O)NO",
    "label_class": 1
  }
]

====

system: Klebsiella pneumoniae; assay: Antibacterial activity against Klebsiella pneumoniae ATCC700603 assessed as reduction in bacterial growth measured after 18 to 24 hrs by CLSI protocol based method; type: functional; settings: time 18-24 hrs

[
  {
    "smiles_input": "CCOC(=O)N1CCN(/N=C/c2ccc(C#Cc3ccc(C(=O)N[C@H](C(=O)NO)[C@@H](C)O)cc3)cn2)CC1",
    "MIC": "> 64 µg/mL"
  },
  {
    "smiles_input": "C[C@@H](O)[C@H](NC(=O)c1ccc(C#Cc2ccc(/C=N/N3CCN(C(=O)OC(C)(C)C)CC3)cc2)cc1)C(=O)NO",
    "MIC": "> 64 µg/mL"
  },
  {
    "smiles_input": "C[C@@H](O)[C@H](NC(=O)c1ccc(C#Cc2ccc(/C=N/N3CCN(C(=O)C4CC4)CC3)cc2)cc1)C(=O)NO",
    "MIC": "16 µg/mL"
  },
  {
    "smiles_input": "C[C@@H](O)[C@H](NC(=O)c1ccc(C#Cc2ccc(/C=N/N3CCN(S(C)(=O)=O)CC3)cc2)cc1)C(=O)NO",
    "MIC": "> 64 µg/mL"
  },
  {
    "smiles_input": "CCN1CCN(/N=C/c2ccc(C#Cc3ccc(C(=O)N[C@H](C(=O)NO)[C@@H](C)O)cc3)cn2)CC1",
    "MIC": "> 64 µg/mL"
  },
  {
    "smiles_input": "C[C@@H](O)[C@H](NC(=O)c1ccc(C#Cc2ccc(/C=N/N3CCS(=O)(=O)CC3)cc2)cc1)C(=O)NO",
    "MIC": "16 µg/mL"
  },
  {
    "smiles_input": "CCC(=O)N1CCN(/N=C/c2ccc(C#Cc3ccc(C(=O)N[C@H](C(=O)NO)[C@@H](C)O)cc3)cn2)CC1",
    "MIC": "> 64 µg/mL"
  },
  {
    "smiles_input": "C[C@@H](O)[C@H](NC(=O)c1ccc(C#Cc2ccc(/C=N/N3CCN(C)CC3)cc2)cc1)C(=O)NO",
    "MIC": "8 µg/mL"
  }
]

====

test: Solubility of the compound at pH 4.0 by LC-MS/MS analysis; assay type: physicochemical; conditions: buffer
endpoint_label: solubility (µM)

[
  {
    "smiles_input": "C[C@@H](O)[C@H](NC(=O)c1ccc(C#Cc2ccc(/C=N/N3CCCC3)cc2)cc1)C(=O)NO",
    "recorded_measurement": 4.8
  }
]

====

Overview of recorded bioavailability for various molecules
experiment: Oral bioavailability in male Sprague-Dawley rat at 10 mg/kg, IG measured upto 24 hrs by LC-MS analysis; assay type: ADME, organism-based; conditions: in vivo
endpoint_label: bioavailability

[
  {
    "smiles_input": "C[C@@H](O)[C@H](NC(=O)c1ccc(C#Cc2ccc(/C=N/N3CCCC3)cc2)cc1)C(=O)NO",
    "recorded_measurement": "13.3%"
  },
  {
    "smiles_input": "C[C@@H](O)[C@H](NC(=O)c1ccc(C#Cc2ccc(CN3CCOCC3)cc2)cc1)C(=O)NO",
    "recorded_measurement": "10.6%"
  }
]

====

tested on: Klebsiella pneumoniae; experiment: Antibacterial activity against Klebsiella pneumoniae clinical isolate KPN+22-1 assessed as reduction in bacterial growth measured after 18 to 24 hrs by CLSI protocol based method; format: functional; conditions: time 18-24 hrs
endpoint_label: MIC

[
  {
    "smiles_input": "CCOC(=O)N1CCN(/N=C/c2ccc(C#Cc3ccc(C(=O)N[C@H](C(=O)NO)[C@@H](C)O)cc3)cc2)CC1",
    "recorded_measurement": "4 µg/mL"
  },
  {
    "smiles_input": "CCN1CCN(/N=C/c2ccc(C#Cc3ccc(C(=O)N[C@H](C(=O)NO)[C@@H](C)O)cc3)cc2)CC1",
    "recorded_measurement": "4 µg/mL"
  },
  {
    "smiles_input": "C[C@@H](O)[C@H](NC(=O)c1ccc(C#Cc2ccc(/C=N/N3CCS(=O)(=O)CC3)cc2)cc1)C(=O)NO",
    "recorded_measurement": "4 µg/mL"
  }
]

====

system: Escherichia coli; assay: Antibacterial activity against Escherichia coli ATCC25922 assessed as reduction in bacterial growth measured after 18 to 24 hrs by CLSI protocol based method; type: functional; settings: time 18-24 hrs
// reported MIC for each item listed

[
  {
    "compound": "O=C(NO)C1CN(c2ccc(C#Cc3ccc(/C=N/N4CCCC4)cc3)cc2)C(=O)O1 (stereo not given)",
    "rel": ">",
    "MIC (µg/mL)": 64
  },
  {
    "compound": "C[C@@H](O)[C@H](NC(=O)c1ccc(C#Cc2ccc(/C=N/N3CCS(=O)(=O)CC3)cc2)cc1)C(=O)NO",
    "rel": "=",
    "MIC (µg/mL)": 1
  },
  {
    "compound": "CCN1CCN(/N=C/c2ccc(C#Cc3ccc(C(=O)N[C@H](C(=O)NO)[C@@H](C)O)cc3)cn2)CC1",
    "rel": "=",
    "MIC (µg/mL)": 16
  },
  {
    "compound": "CCN1CCN(/N=C/c2ccc(C#Cc3ccc(C(=O)N[C@H](C(=O)NO)[C@@H](C)O)cc3)cc2)CC1",
    "rel": "=",
    "MIC (µg/mL)": 0.5
  },
  {
    "compound": "C[C@@H](O)[C@H](NC(=O)c1ccc(C#Cc2ccc(/C=N/N3CCCCC3)nc2)cc1)C(=O)NO",
    "rel": "=",
    "MIC (µg/mL)": 1
  },
  {
    "compound": "CCOC(=O)N1CCN(/N=C/c2ccc(C#Cc3ccc(C(=O)N[C@H](C(=O)NO)[C@@H](C)O)cc3)cn2)CC1",
    "rel": "=",
    "MIC (µg/mL)": 2
  },
  {
    "compound": "C[C@@H](O)[C@H](NC(=O)c1ccc(C#Cc2ccc(/C=N/N3CCCC3)cc2)cc1)C(=O)NO",
    "rel": "=",
    "MIC (µg/mL)": 0.06
  },
  {
    "compound": "O=C(NO)C1CN(c2ccc(C#Cc3ccc(/C=N/N4CCOCC4)cc3)cc2)C(=O)O1 (stereo not given)",
    "rel": "=",
    "MIC (µg/mL)": 1
  },
  {
    "compound": "C[C@@H](O)[C@H](NC(=O)c1ccc(C#Cc2ccc(/C=N/N3CCN(C(=O)OC(C)(C)C)CC3)cc2)cc1)C(=O)NO",
    "rel": "=",
    "MIC (µg/mL)": 1
  },
  {
    "compound": "C[C@@H](O)[C@H](NC(=O)c1ccc(C#Cc2ccc(/C=N/N3CCN(C(=O)C(C)(C)C)CC3)cc2)cc1)C(=O)NO",
    "rel": "=",
    "MIC (µg/mL)": 0.25
  }
]
